The values you see were collected from patent US9976134B2.

Protocol summary: Stability assay in 25% TIDE 2X detergent without DTPA (residual Abz-AGLA-Nba protease activity)
Format: physicochemical
Assay context: 180 min at 50°C; variant residual AGLA activity divided by wild-type residual activity
Experimental readout: PI (relative stability), 25% TIDE 2X without DTPA

[
  {
    "Molecule": "Y151T: single-substitution thermolysin variant (SEQ ID NO:3 numbering) (protein, listed as Geobacillus caldoproteolyticus) ITGTSTVGVGRGVLGDQKNINTTYSTYYYLQDNTRGNGIFTYDAKYRTTLPGSLWADADNQFFASYDAPAVDAHYYAGVTYDYYKNVHNRLSYDGNNAAIRSSVHYSQGYNNAFWNGSQMVYGDGDGQTFIPLSGGIDVVAHELTHAVTDTTAGLIYQNESGAINEAISDIFGTLVEFYANKNPDWEIGEDVYTPGISGDSLRSMSDPAKYGDPDHYSKRYTGTQDNGGVHINSGIINKAAYLISQGGTHYGVSVVGIGRDKLGKIFYRALTQYLTPTSNFSQLRAAAVQSATDLYGSTSQEVASVKQAFDAVGVK",
    "Recorded value": 1.10
  }
]
